assay: Oral bioavailability in rat; settings: in vivo
The following compounds are shown together with reported bioavailability values.
ENDPOINT LABEL: bioavailability (%)

- CC[C@@H](C)[C@H](C(=O)O)N1C[C@H](CN2CCC(c3cc(Cc4ccccc4)nn3CC)CC2)[C@@H](c2cccc(F)c2)C1: 13
- CCn1nc(Cc2ccccc2)cc1C1CCN(C[C@H]2CN([C@](C)(C(=O)O)C(C)C)C[C@@H]2c2cccc(F)c2)CC1: 21
- CCn1nc(Cc2ccccc2)cc1C1CCN(C[C@H]2CN([C@H](CC3CCC3)C(=O)O)C[C@@H]2c2cccc(F)c2)CC1: 7.3
- CCC(CC)[C@H](C(=O)O)N1C[C@H](CN2CCC(c3cc(Cc4ccccc4)nn3CC)CC2)[C@@H](c2cccc(F)c2)C1: 52
- CCn1nc(Cc2ccccc2)cc1C1CCN(C[C@H]2CN([C@@H](C(=O)O)C(C)C)C[C@@H]2c2cccc(F)c2)CC1: 11
- CCn1nc(Cc2ccccc2)cc1C1CCN(C[C@H]2CN([C@@H](C(=O)O)C(C)(C)C)C[C@@H]2c2cccc(F)c2)CC1: 71

---

The following compounds are shown together with reported log10 of clearance values.
assay: in vivo; conditions: rat, plasma
ENDPOINT LABEL: log10 of clearance (log10 of the value in mL/min/kg)

* CC[C@@H](C)[C@H](C(=O)O)N1C[C@H](CN2CCC(c3cc(Cc4ccccc4)nn3CC)CC2)[C@@H](c2cccc(F)c2)C1 | 1.40
* CCn1nc(Cc2ccccc2)cc1C1CCN(C[C@H]2CN([C@@H](C(=O)O)C(C)(C)C)C[C@@H]2c2cccc(F)c2)CC1 | 0.76
* CCC(CC)[C@H](C(=O)O)N1C[C@H](CN2CCC(c3cc(Cc4ccccc4)nn3CC)CC2)[C@@H](c2cccc(F)c2)C1 | 1.28
* CCn1nc(Cc2ccccc2)cc1C1CCN(C[C@H]2CN([C@H](CC(C)C)C(=O)O)C[C@@H]2c2ccccc2)CC1 | 1.63
* CCn1nc(Cc2ccccc2)cc1C1CCN(C[C@H]2CN([C@@H](C(=O)O)C(C)C)C[C@@H]2c2cccc(F)c2)CC1 | 0.51
* CCn1nc(Cc2ccccc2)cc1C1CCN(C[C@H]2CN([C@](C)(C(=O)O)C(C)C)C[C@@H]2c2cccc(F)c2)CC1 | 1.00

---

tested on: Rattus norvegicus; assay: Area under curve in rat after p.o. administration; settings: in vivo, po
The following compounds are shown together with reported AUC N values.
ENDPOINT LABEL: AUC N (uM hr dose-1)

- CCn1nc(Cc2ccccc2)cc1C1CCN(C[C@H]2CN([C@@H](C(=O)O)C(C)C)C[C@@H]2c2ccccc2)CC1: 0.45
- CCn1nc(Cc2ccccc2)cc1C1CCN(C[C@H]2CN([C@@H](C(=O)O)C3CCC3)C[C@@H]2c2ccccc2)CC1: 0.06
- CCn1nc(Cc2ccccc2)cc1C1CCN(C[C@H]2CN([C@@H](C(=O)O)C(C)(C)C)C[C@@H]2c2cccc(F)c2)CC1: 3.7
- CCn1nc(Cc2ccccc2)cc1C1CCN(C[C@H]2CN([C@@H](C(=O)O)C(C)C)C[C@@H]2c2cccc(F)c2)CC1: 1.1
- CCn1nc(Cc2ccccc2)cc1C1CCN(C[C@H]2CN([C@H](CC3CC3)C(=O)O)C[C@@H]2c2cccc(F)c2)CC1: 0.03
- CCn1nc(Cc2ccccc2)cc1C1CCN(C[C@H]2CN([C@](C)(C(=O)O)C(C)C)C[C@@H]2c2cccc(F)c2)CC1: 0.62
- CCn1nc(Cc2ccccc2)cc1C1CCN(C[C@H]2CN([C@H](CC(C)C)C(=O)O)C[C@@H]2c2ccccc2)CC1: 0.13
